- TARGET: Rap guanine nucleotide exchange factor 4 (Homo sapiens) (UniProt Q8WZA2)
- Sequence (Q8WZA2 whole entry, looked up): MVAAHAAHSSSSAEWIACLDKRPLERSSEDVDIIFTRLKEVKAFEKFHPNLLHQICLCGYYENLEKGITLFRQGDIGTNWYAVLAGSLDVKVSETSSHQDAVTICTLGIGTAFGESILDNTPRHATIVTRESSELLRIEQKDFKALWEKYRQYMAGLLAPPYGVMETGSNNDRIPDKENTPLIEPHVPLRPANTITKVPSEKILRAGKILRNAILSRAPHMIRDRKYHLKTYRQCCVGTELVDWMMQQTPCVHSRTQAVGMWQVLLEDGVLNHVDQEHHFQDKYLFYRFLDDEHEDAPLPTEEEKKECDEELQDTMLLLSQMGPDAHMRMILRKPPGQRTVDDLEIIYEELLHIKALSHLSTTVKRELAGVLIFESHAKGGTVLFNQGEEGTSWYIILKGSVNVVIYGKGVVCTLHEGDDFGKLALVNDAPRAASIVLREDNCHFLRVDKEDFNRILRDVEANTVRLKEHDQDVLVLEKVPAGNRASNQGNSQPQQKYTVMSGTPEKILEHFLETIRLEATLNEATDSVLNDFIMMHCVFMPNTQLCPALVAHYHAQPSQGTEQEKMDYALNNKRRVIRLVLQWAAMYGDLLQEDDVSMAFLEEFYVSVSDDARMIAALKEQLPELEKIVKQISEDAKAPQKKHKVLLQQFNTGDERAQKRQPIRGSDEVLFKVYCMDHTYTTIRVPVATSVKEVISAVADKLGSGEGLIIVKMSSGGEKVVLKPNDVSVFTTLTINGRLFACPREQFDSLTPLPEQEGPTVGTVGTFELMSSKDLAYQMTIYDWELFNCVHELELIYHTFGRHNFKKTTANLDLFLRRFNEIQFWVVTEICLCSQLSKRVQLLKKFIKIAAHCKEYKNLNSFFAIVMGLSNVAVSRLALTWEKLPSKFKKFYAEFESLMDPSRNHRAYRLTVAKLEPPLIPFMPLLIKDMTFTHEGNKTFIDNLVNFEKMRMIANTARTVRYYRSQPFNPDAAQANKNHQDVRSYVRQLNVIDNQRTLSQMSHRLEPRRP
- METHOD_SUMMARY: qHTS for Antagonist of cAMP-regulated guanine nucleotide exchange factor 2 (EPAC2): primary screen; further: nearly all actives have a fitted effect of over 45% in size
- CONDITION_INFO: EPAC2 GEF exchange of Rap1B-BODIPY-GDP, fluorescence; series mostly up to 114 µM
Among all 360,000 compounds or so, about 660 (0.18%) were called active. Inconclusive results (about 2%) are left out. The call rests on the fitted dose curve; in most records, active means well fitted inhibition curve with a large enough effect; inconclusive means small, poorly fitted or top-dose-only effect; inactive means no such curve, though single readings can be large or run the other way. This is one part of a sample in which actives are shown more often than they occur.
Outcomes: 1 for active, -1 for inactive

| COMPOUND | CLASS |
| --- | --- |
| Cc1c(Cl)c([N+](=O)[O-])nn1CC(=O)NCCCN1CCOCC1 | -1 |
| COc1ccc(-c2cn[nH]c2-c2ccc(OC)cc2)cc1 | -1 |
| CCOc1ccccc1Oc1cn[nH]c1-c1ccc(OC)cc1O | -1 |
| C#CCOCCOCCOCCNc1nc(N2CCN(C(=O)C([C@@H](C)CC)n3cc(C(N)COC(=O)C(F)(F)F)nn3)CC2)nc(N2CCN(C(=O)[C@H](CCCCN)n3cc(C(N)CC(C)C)nn3)CC2)n1 (stereo not given in full) | -1 |
| Nc1nc(SCC(=O)NN(c2ccccc2)c2ccccc2)n[nH]1 | -1 |
| CCC(=O)NC(Nc1cc(C)ccn1)(C(F)(F)F)C(F)(F)F | -1 |
| COc1ccc(NC(=O)CNC(=O)Cn2ccc3ccccc3c2=O)c(OC)c1 | -1 |
| O=C(NC1CCCCC1)C(c1cc2ccccc2o1)n1c(=O)c(-c2ccco2)nc2ccccc21 (stereo not given) | -1 |
| CC1CCCN(C(C(=O)Nc2ccc(C(C)C)cc2)c2ccc3c(c2)OCO3)C1 (stereo not given) | -1 |
| CCN1CCN(C(=O)c2cc3cc4ccc(OC)cc4nc3s2)CC1 | -1 |
| O=C(c1ccc[nH]c1=S)N1CCN(S(=O)(=O)c2ccc(Br)cc2Cl)CC1 | -1 |
| Cc1ccc2nc(NC(=O)CSc3nc(=O)n(CCCN(C)C)c4c3CCC4)sc2c1 | 1 |
| COc1ccc(N(C)S(=O)(=O)c2cccc3nsnc23)cc1 | -1 |
| COc1ccc(S(=O)(=O)N[C@@H]2C=C[C@@H](CC(=O)N3CCc4ccccc4C3)O[C@@H]2CO)cc1 | -1 |
| CCC1Nc2ncnc(N3CCN(c4ccccc4)CC3)c2N(Cc2ccc(Cl)cc2)C1=O (stereo not given) | -1 |
| C#CCOCCOCCOCCNc1nc(N2CCN(C(=O)CCCCCCCCCCNC(=O)[C@H](CCCCN)n3cc(C)nn3)CC2)nc(N2CCN(C(=O)CCCCCCCCCCNC(=O)[C@H](CO)n3cc(CCCSC)nn3)CC2)n1 | 1 |
| Cc1csc(NC(=O)CSc2nc(=O)n(CCCN(C)C)c3c2CCC3)n1 | -1 |
| COC(=O)C1=C[C@@H](C(=O)OC)[C@@H]2C3=C(C(=O)[C@]2(C)NC(=O)c2ccccc2)[C@H](C)n2c(=O)n(C)c(=O)n2[C@@H]3C1 | -1 |
| Cc1cc(C)c2cc(C#N)c(N3CCNCC3)nc2c1 | -1 |
| CCO/C([O-])=N/c1c[n+](N2CCOCC2)no1 | -1 |
| C#CCOCCOCCOCCNc1nc(N2CCN(C(=O)CCCCCCCCCCNC(=O)[C@H]([C@@H](C)CC)n3cc(CCCCN=C(N)N)nn3)CC2)nc(N2CCN(C(=O)CCCCCCCCCCNC(=O)[C@H](CO)n3cc(CCCSC)nn3)CC2)n1 | 1 |
| Cc1cccc(NS(=O)(=O)c2ccc(C(=O)NCC(C)(C)N3CCOCC3)cc2)c1C | -1 |
| C/C(=N\N(C)C)c1ccc(OCCOc2ccc([N+](=O)[O-])cc2)cc1 | -1 |
| C#CCOCCOCCOCCNc1nc(N2CCN(C(=O)C([C@@H](C)O)n3cc([C@@H](N)CCCCN)nn3)CC2)nc(N2CCN(C(=O)[C@H](CCCCN)n3cc(CN)nn3)CC2)n1 (stereo not given in full) | -1 |
| C=CCNC(=S)NNC(=O)c1ccc(Br)o1 | -1 |
| CCN(CC)S(=O)(=O)c1cc([N+](=O)[O-])ccc1NNC(=O)Nc1ccccc1 | -1 |
| COc1cc(N)c(Cl)cc1C(=O)OCC(=O)c1ccc2c(c1)NC(=O)CO2 | -1 |
| Cc1ccc(NC(=O)CSc2nc(=O)n(CCN(C)C)c3c2CCCC3)c(C)c1 | -1 |
| C[C@@H]1CN([C@@H](C)CO)S(=O)(=O)c2ccc(C#Cc3cccc(F)c3)cc2O[C@H]1CN(C)S(=O)(=O)c1cn(C)cn1 | -1 |
| CC(C)(C)NC(=O)C(CCc1ccccc1)n1c(=O)c(-c2ccccc2)nc2ccccc21 (stereo not given) | -1 |
| COc1cccc2c(N/N=C/c3ccco3)cc(C)nc12 | 1 |
| C#CCOCCOCCOCCNc1nc(N2CCN(C(=O)[C@H](CCCCN)n3cc([C@@H](N)C(C)CC)nn3)CC2)nc(N2CCN(C(=O)[C@H](Cc3ccc(O)cc3)n3cc([C@@H](N)C(C)CC)nn3)CC2)n1 (stereo not given in full) | -1 |
| COC(=O)C[C@@H]1C=C[C@@H](NS(=O)(=O)c2cccc(OC)c2)[C@@H](CO)O1 | -1 |
| CC(C)C[C@H]1CN([C@@H](CC(C)C)CN2CCC[C@@H]2CN2C(=O)C(=O)NC[C@@H]2Cc2ccccc2)C(=O)C(=O)N1CCc1ccccc1 | -1 |
| O=C(CSc1n[nH]c(-c2cccs2)n1)N1CCCCC1 | -1 |
